This collection of values is drawn from patent US20260102418A1.

Below: a set of entries, each annotated with reported EC50.
- Tested on: A/Weiss/43 (H1N1) oseltamivir-resistant strain
- run-description: Antiviral CPE assay in MDCK, other influenza strains
- Format: cell-based, influenza A virus (IAV)
- measurement-conditions: Influenza A virus
Entry format: amount then unit.

# annotated cases, reported EC50 shown
Prompt: Find the recorded EC50 belonging to O=C1c2c(OCOP(=O)(O)O)c(=O)ccn2N([C@@H]2c3ccccc3[Se]Cc3c2ccc(F)c3F)[C@@H]2COC3(CC3)CN12 and report it.
Response: 1.33 nM

Prompt: Input NC(=O)c1ncn([C@@H]2O[C@H](CO)[C@@H](O)[C@H]2O)n1 [Ribavirin, reference compound]
Response: 30300 nM

Prompt: Input [2H]C([2H])([2H])OC(=O)OCOc1c2n(ccc1=O)N([C@@H]1c3ccccc3SCc3c1ccc(F)c3F)[C@@H]1COC3(CC3)CN1C2=O
Response: 1.45 nM

Prompt: Input [2H]C([2H])([2H])OC(=O)OCOc1c2n(ccc1=O)N([C@@H]1c3ccccc3[Se]Cc3c1ccc(F)c3F)[C@@H]1COC3(CC3)CN1C2=O
Response: 1.16 nM

Pending compound:
Prompt: Find the recorded EC50 belonging to COC(=O)OCOc1c2n(ccc1=O)N([C@@H]1c3ccccc3SCc3c1ccc(F)c3F)[C@@H]1COC3(CC3)CN1C2=O [Compound M42, reference compound] and report it.
Response: 2.11 nM
